Hello, the source for this data is patent US8022102B2, in case you need it.

- tgt: human Dopamine D2L receptor (Homo sapiens, UniProt P14416)
- Construct: expressed in transfected cells; host or cells: CHO cells
- Sequence (P14416 whole entry): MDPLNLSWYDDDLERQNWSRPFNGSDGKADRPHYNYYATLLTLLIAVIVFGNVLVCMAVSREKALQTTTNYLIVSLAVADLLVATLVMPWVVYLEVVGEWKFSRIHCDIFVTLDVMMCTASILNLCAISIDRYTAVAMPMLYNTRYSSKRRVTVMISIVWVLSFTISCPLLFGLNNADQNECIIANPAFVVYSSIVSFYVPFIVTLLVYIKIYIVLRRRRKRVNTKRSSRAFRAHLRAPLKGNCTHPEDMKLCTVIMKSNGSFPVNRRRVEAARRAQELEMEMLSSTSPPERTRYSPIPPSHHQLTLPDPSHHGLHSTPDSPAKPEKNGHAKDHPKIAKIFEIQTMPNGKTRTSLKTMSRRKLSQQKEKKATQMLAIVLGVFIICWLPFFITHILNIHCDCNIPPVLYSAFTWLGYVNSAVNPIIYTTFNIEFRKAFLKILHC
- test-description: In vitro binding affinity for human D2L receptor ([3H]Spiperone)
- particulars: human D2L receptor-transfected CHO cell membranes, [3H]Spiperone; read-out: h-D2L (converted)
- Method: Frozen membranes of human Dopamine D2L receptor-transfected CHO cells were thawed, briefly homogenised using an Ultra-Turrax T25 homogeniser and diluted in Tris-HCl assay buffer containing NaCl, CaCl2, MgCl2, KCl (50, 120, 2, 1, and 5 mM respectively, adjusted to pH 7.7 with HCl) to an appropriate protein concentration optimised for specific and non-specific binding. […] Percentage specific bound and competition binding curves were calculated using S-Plus software (Insightful).
readout-label: IC50 (nM)

Sample answers from the record:
compound: CCCn1c2c(c3ccccc31)C1=C(CC(CNC)O1)c1ccccc1S2 (stereo not shown) [Compound 93]
result-units: nM
IC50: 398
//
compound: CN(C)C(=O)N1CCN(CC2CC3=C(O2)c2cc(F)ccc2Cc2ccccc23)CC1 (stereo not shown) [Compound 75]
result-units: nM
IC50: 794
//
compound: OCCNCC1CC2=C(O1)c1cc(F)ccc1Cc1ccccc12 (stereo not shown) [Compound 19]
result-units: nM
IC50: 63.1
//
compound: CCS(=O)(=O)N1CCN(CC2CC3=C(O2)c2cc(F)ccc2Cc2ccccc23)CC1 (stereo not shown) [Compound 46]
result-units: nM
IC50: 501
//
compound: CN(C)C(=O)N1CCN(CC2CC3=C(O2)c2cc(F)ccc2Oc2ccccc23)CC1 (stereo not shown) [Compound 76]
result-units: nM
IC50: 251
//
compound: CC(C)OC(=O)N1CCN(CC2CC3=C(O2)c2cc(F)ccc2Cc2ccccc23)CC1 (stereo not shown) [Compound 63]
result-units: nM
IC50: 3980
//
compound: CCOC(=O)CN(C)C[C@H]1CC2=C(O1)c1cc(F)ccc1Cc1ccccc12 [Compound 113]
result-units: nM
IC50: 1580
//
compound: CCCCNC(=O)N1CCN(CC2CC3=C(O2)c2cc(F)ccc2Cc2ccccc23)CC1 (stereo not shown) [Compound 77]
result-units: nM
IC50: 126

[a] O=C(C1CC1)N1CCN(CC2CC3=C(O2)c2cc(F)ccc2Cc2ccccc23)CC1 (stereo not shown) [Compound 57]
[b] CN(C)CC1CC2=C(O1)c1ccccc1Cc1ccccc12 (single isomer, unassigned) [Compound 23]
Hi! Which is lower in terms of IC50, the first one a or the second one b ? Write down the label of the entry you select.
a
(a: 316 nM, b: 1580 nM)

[a] CN(C)CC1CC2=C(O1)c1cc(Br)ccc1Cc1ccccc12 (stereo not shown) [Compound 21]
[b] CN(CC(=O)Nc1ccccc1)C[C@H]1CC2=C(O1)c1cc(F)ccc1Cc1ccccc12 [Compound 118]
Hi! Which is lower in terms of IC50, the first one a or the second one b ? Write down the label of the entry you select.
a
(a: 15.8 nM, b: 794 nM)

[a] CCOC(=O)N1CCN(CC2CC3=C(O2)c2cc(F)ccc2Cc2ccccc23)CC1 (stereo not shown) [Compound 61]
[b] CN(Cc1nnn[nH]1)C[C@H]1CC2=C(O1)c1cc(F)ccc1Cc1ccccc12 [Compound 125]
[c] COc1ccc(NC(=O)N2CCN(CC3CC4=C(O3)c3cc(F)ccc3Oc3ccccc34)CC2)cc1 (stereo not shown) [Compound 90]
[d] CCCC(=O)N1CCN(CC2CC3=C(O2)c2cc(F)ccc2Cc2ccccc23)CC1 (stereo not shown) [Compound 55]
Order field: IC50 | Direction: descending (largest first) # answer = labels listed in requested order
b, c, d, a

[1] CNCC1CC2=C(O1)c1cc(F)ccc1Sc1ccccc12 (single isomer, unassigned) [Compound 13]
[2] COc1cc2c(cc1OC)CN(CC1CC3=C(O1)c1cc(F)ccc1Cc1ccccc13)CC2 (stereo not shown) [Compound 40]
[3] OC1CCCN(CC2CC3=C(O2)c2cc(F)ccc2Cc2ccccc23)C1 (stereo not shown) [Compound 37]
[4] CCCC(=O)N1CCN(CC2CC3=C(O2)c2cc(F)ccc2Oc2ccccc23)CC1 (stereo not shown) [Compound 56]
[5] CN(CC(=O)O)C[C@H]1CC2=C(O1)c1cc(F)ccc1Cc1ccccc12 [Compound 107]
Order field: IC50 | Direction: descending (largest first) # answer = labels listed in requested order
5, 4, 1, 2, 3
(5: 3980 nM, 4: 1260 nM, 1: 200 nM, 2: 50.1 nM, 3: 20 nM)
